target: acyl-CoA:cholesterol acyltransferase (ACAT); assay: Inhibition of Acyl CoA:Cholesterol Acyltransferase (ACAT) in Hepatic Microsomes; type: biochemical, rat (male Sprague Dawley); settings: rat hepatic microsomes, 75 μM 14C-oleoyl-CoA, pH 7.4, 37° C., 15 min preincubation, 10 min assay; read-out: IC50 In Vitro ACAT
pIC50: −log10 of the molar value.
Measure: pIC50

Please review the entries below; each comes with its answer.
# Compound, Assay Target, pIC50
measured = [
    ("CCOC(=O)CCCCCCCSc1nc(-c2ccccc2)c(-c2ccccc2)[nH]1", "acyl-CoA:cholesterol acyltransferase (ACAT)", 5.70),
    ("O=C(O)CCCCCCCCCCSc1nc(-c2ccccc2)c(-c2ccccc2)[nH]1", "acyl-CoA:cholesterol acyltransferase (ACAT)", 6.00),
]

P = O=C(O)CCCCCCCOc1nc(-c2ccccc2)c(-c2ccccc2)n1-c1ccccc1 [Octimibate, reference compound]
Q = CCOC(=O)CCCCCCCCCCSc1nc(-c2ccccc2)c(-c2ccccc2)[nH]1
R = O=C(O)CCCCCCCSc1nc(-c2ccccc2)c(-c2ccccc2)[nH]1
Order the records, beginning with the lowest pIC50 and ending with the highest. Return the labels ranked in the requested order, please.
P, R, Q
